// merged dataset of IC50 values, system = PIK3CB (Human) (UniProt P42338), multiple refs
ASSAY METRIC: IC50

>>> result("Cc1cc(-c2cc(-c3nnc[nH]3)c3nc(C)n(-c4ccnc5c(F)ccc(F)c45)c3c2)ccn1 (single isomer, unassigned)")
"0.12 µM"
>>> result("Cc1csc2nc(Cn3nc(-c4ccc(O)cc4)c4c(N)ncnc43)n(-c3ccccc3F)c(=O)c12")
"> 10 µM"
>>> result("Cc1ccccc1-n1c(Cn2nc(-c3cccc(O)c3)c3c(N)ncnc32)nc2c(C)nn(C)c2c1=O")
"> 10 µM"
>>> result("Nc1nc2cc(-c3cnc4ccc(C(=O)N5CCOCC5)cn34)ccc2o1")
"> 10 µM"
>>> result("CCCCc1cccc2cc([C@H](C)Nc3ncnc4scnc34)n(-c3ccccc3)c(=O)c12")
"1 to 10 µM"
>>> result("C[C@H](NC(=O)c1c(N)nn2cccnc12)c1cc2cccc(/C=C/c3ccccc3)c2c(=O)n1-c1ccccc1")
"> 10 µM"
>>> result("CC(C)[C@H](N)C(=O)N1CCN(c2cnc3ccc(-c4ccc5oc(N)nc5c4)cc3n2)CC1")
"< 1 µM"
>>> result("COc1ncc(-c2ccc3ncn(CC(C)C(=O)NCCF)c(=O)c3c2)cc1NS(=O)(=O)c1ccc(F)cc1Cl (single isomer, unassigned)")
"0.181 µM"
>>> result("C[C@@H]1CN(C2CN(c3cnc4ccc(-c5ccc6oc(N)nc6c5)nc4c3)C2)CCN1C")
"< 10 µM"
>>> result("N#CCc1ccc(Nc2ncnc3ccc(-c4cncc5ccccc45)cc23)cc1")
"> 20 µM"
>>> result("NC(=O)[C@H]1CCCN1C(=O)c1cnc2ccc(-c3ccc4oc(N)nc4c3)cn12")
"> 10 µM"
>>> result("C[C@H](NC(=O)c1c(N)nn2cccnc12)c1cc2cccc(Cl)c2c(=O)n1C1CCCCC1")
"1 to 10 µM"
>>> result("Cn1ncc2c(-c3cccc4[nH]ncc34)nc(N3CCOCC3)nc21")
"0.1 to 10 µM"
>>> result("Cc1cccc2cc(Cn3nc(C#C[C@@H](C)O)c4c(N)ncnc43)n(-c3ccccc3Cl)c(=O)c12")
"> 10 µM"
>>> result("COc1ccc(-c2cnc(N)c(C(=O)N[C@@H](C)c3cc4cccc(Cl)c4c(=O)n3-c3ccccc3)n2)cc1NS(C)(=O)=O")
"0.1 to 1 µM"
>>> result("C[C@H]1CN(C2CN(c3cnc4ccc(-c5ccc6nc(N)[nH]c6c5)nc4c3)C2)CCN1C")
"> 10 µM"
>>> result("CNC(=O)N1CCN(c2cnc3ccc(-c4ccc5oc(N)nc5c4)cc3n2)CC1")
"< 1 µM"
>>> result("Cc1nc2c(-c3nnc[nH]3)cc(-c3ccnc(C#N)c3)cc2n1-c1ccnc2c(F)ccc(F)c12")
"0.004 µM"
>>> result("Cc1ccccc1-n1c(Cn2nc(I)c3c(N)ncnc32)nc2nccc(C)c2c1=O")
"> 10 µM"
>>> result("COc1ncc(-c2cccc3cc([C@H](C)Nc4ncnc5scnc45)n(-c4ccccc4)c(=O)c23)cc1C")
"1 to 10 µM"
>>> result("Cc1cccc2cc([C@H](C)Nc3cc(N)nc(Cl)n3)n(-c3ccccc3)c(=O)c12")
"> 10 µM"
>>> result("COc1ncc(-c2ccc3ncc(C(=O)N4CCOCC4)n3c2)cc1NS(C)(=O)=O")
"< 10 µM"
>>> result("CC(C)N1CCC(Oc2nc([C@H](C)Nc3ccnc4ccnn34)cc3cccc(Cl)c23)CC1")
"< 10 µM"
>>> result("Nc1nc2cc(-c3ccc4ncc(C(=O)N5CC5)n4c3)ccc2o1")
"> 10 µM"
>>> result("C[C@H](Nc1ccnn2ccnc12)c1cc2ccccc2c(CCN2CCOCC2)n1")
"> 10 µM"
>>> result("CNC(=O)C(C)Cn1cnc2ccc(-c3cnc(OC)c(NS(=O)(=O)c4ccc(C)c(Cl)c4)c3)cc2c1=O (single isomer, unassigned)")
"0.153 µM"
>>> result("O=C(c1nc2c(N3CCOCC3)nc(-c3cn[nH]c3)nc2[nH]1)N1CCC2(CC1)COC2")
"> 10 µM"
>>> result("CC(=O)Nc1n[nH]c2cc(-c3ccc4oc(N)nc4c3)ccc12")
"< 10 µM"
>>> result("C[C@H](Nc1ncnc2scnc12)c1cc2cccc(Cl)c2c(OC2CCN(S(C)(=O)=O)CC2)n1")
"< 10 µM"
>>> result("Nc1nc2cc(-c3ccc4nc(N5CCOCC5)cnc4n3)ccc2o1")
"> 10 µM"
>>> result("Cc1cccc2cc([C@H](C)Nc3ncnc4[nH]cc(C(N)=O)c34)n(-c3ccccc3)c(=O)c12")
"< 0.1 µM"
>>> result("CN1CCC(Nc2cnc3ccc(-c4ccc5oc(N)nc5c4)cc3n2)CC1")
"< 1 µM"
